Assignment: determine reported inhibition for the given molecules.
# target-system: Vasoactive intestinal polypeptide receptor 2 (Homo sapiens) (UniProt P41587)
# Sequence (P41587 whole entry, the tested form may be a part): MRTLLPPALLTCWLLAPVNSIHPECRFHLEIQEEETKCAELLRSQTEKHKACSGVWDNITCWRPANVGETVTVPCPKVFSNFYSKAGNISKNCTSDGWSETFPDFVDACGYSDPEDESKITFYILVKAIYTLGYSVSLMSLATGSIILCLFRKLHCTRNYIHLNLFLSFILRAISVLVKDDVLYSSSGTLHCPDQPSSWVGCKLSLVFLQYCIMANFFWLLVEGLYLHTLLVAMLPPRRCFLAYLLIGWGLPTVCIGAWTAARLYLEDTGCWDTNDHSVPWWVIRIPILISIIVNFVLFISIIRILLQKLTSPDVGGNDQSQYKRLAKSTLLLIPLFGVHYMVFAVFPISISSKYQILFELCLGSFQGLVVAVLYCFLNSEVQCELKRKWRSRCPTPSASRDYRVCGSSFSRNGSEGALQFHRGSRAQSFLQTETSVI
# procedure-text: Antagonist activity at recombinant human N-terminal signal peptide/FLAG epitope-tagged Rluc8-fused VIPR2 expressed in HEK293 cells assessed as inhibition of VIP-induced human mVenus-beta-arrestin2 binding at 1 uM preincubated for 5 mins with luciferin, coelenterazine H followed by VIP addition measured after 5 mins by BRET assay relative to control
# Format: cell-based
One number for each entry, in %.

Look over these answered cases.
CCN(CC)C(=O)[C@H](Cc1ccccc1)C[C@H](O)CNS(=O)(=O)c1ccc([N+](=O)[O-])cc1    7.9
O=C(O)c1ccc(S(=O)(=O)NC[C@@H](O)C[C@@H](Cc2ccccc2)C(=O)N[C@H]2c3ccccc3C[C@H]2O)cc1    -1.8
CCNC(=O)[C@H](Cc1ccccc1)C[C@H](O)CNS(=O)(=O)c1ccc([N+](=O)[O-])cc1    0.1

For each entry beneath this line, provide reported inhibition.
1. O=C(NC[C@@H](O)C[C@@H](Cc1ccccc1)C(=O)N[C@H]1c2ccccc2C[C@H]1O)c1ccc2ccccc2c1
2. O=C(NC1Cc2ccccc2C1)[C@H](Cc1ccccc1)C[C@H](O)CNS(=O)(=O)c1ccc([N+](=O)[O-])cc1
3. CCCCCNc1ccc(S(=O)(=O)NC[C@@H](O)C[C@@H](Cc2ccccc2)C(=O)N[C@H]2c3ccccc3C[C@H]2O)cc1
4. O=C(NC1CCCc2ccccc21)[C@H](Cc1ccccc1)C[C@H](O)CNS(=O)(=O)c1ccc([N+](=O)[O-])cc1 (some centres not stated)

11.1
8.1
2.3
7.4

Just for reference, ChEMBL document CHEMBL3879914 is where these values come from.
